procedureSummary: Intrinsic clearance in dog liver microsomes incubated for 6 hrs by LC/MS analysis
Type: ADME, Canis lupus familiaris, Microsome
statedConditions: read-out: CLH
readoutType: microsomal CLint (µL/min/mg)

• COc1ccccc1OCC(O)CN1CCC(=C2c3ccc(Cl)cc3CCc3cccnc32)CC1 (racemic) = 158
• Cc1ncc2n1-c1ccc(Cl)cc1C(c1ccccc1F)=NC2 [MIDAZOLAM] = 1230

* * *

procedureSummary: Half life in monkey liver microsomes incubated for 6 hrs by LC/MS analysis
Type: ADME, Macaca mulatta, Microsome
statedConditions: rhesus monkey
readoutType: half-life (min)

* Cc1ncc2n1-c1ccc(Cl)cc1C(c1ccccc1F)=NC2 | 3.74

* * *

procedureSummary: Half life in Sprague-Dawley rat at 10 mg/kg, po
Assay type: ADME, organism-based
statedConditions: in vivo
readoutType: half-life (h)

* COc1ccccc1OCC(O)CN1CCC(=C2c3ccc(Cl)cc3CCc3cccnc32)CC1 (racemic) | 1.4

* * *

procedureSummary: Half life in mouse liver microsomes incubated for 6 hrs by LC/MS analysis
Type: ADME, Microsome
Below, each entry is listed with its recorded half-life.
readoutType: half-life (min)

* Cc1ncc2n1-c1ccc(Cl)cc1C(c1ccccc1F)=NC2 | 8.06
* COc1ccccc1OCC(O)CN1CCC(=C2c3ccc(Cl)cc3CCc3cccnc32)CC1 (racemic) | 1.47

* * *

procedureSummary: Oral bioavailability in Sprague-Dawley rat at 10 mg/kg
Format: ADME, organism-based
statedConditions: in vivo
readoutType: bioavailability (%)

* COc1ccccc1OCC(O)CN1CCC(=C2c3ccc(Cl)cc3CCc3cccnc32)CC1 (racemic) | 18

* * *

procedureSummary: Half life in Sprague-Dawley rat at 2 mg/kg, iv
Format: ADME, organism-based
statedConditions: in vivo
readoutType: half-life (min)

- COc1ccccc1OCC(O)CN1CCC(=C2c3ccc(Cl)cc3CCc3cccnc32)CC1 (racemic): 54

* * *

procedureSummary: Half life in ICR mouse at 2.5 mg/kg, iv
Type: ADME, organism-based
statedConditions: in vivo
readoutType: half-life (min)

* COc1ccccc1OCC(O)CN1CCC(=C2c3ccc(Cl)cc3CCc3cccnc32)CC1 (racemic) | 28.2

* * *

Some molecules, each annotated with its measured microsomal CLint.
procedureSummary: Intrinsic clearance in human liver microsomes incubated for 6 hrs by LC/MS analysis
Format: ADME, Microsome
statedConditions: read-out: CLH
readoutType: microsomal CLint (µL/min/mg)

* COc1ccccc1OCC(O)CN1CCC(=C2c3ccc(Cl)cc3CCc3cccnc32)CC1 (racemic) | 179
* Cc1ncc2n1-c1ccc(Cl)cc1C(c1ccccc1F)=NC2 | 289

* * *

procedureSummary: Toxicity in ICR mouse
statedConditions: in vivo
readoutType: MTD (mg/kg)

- COc1ccccc1OCC(O)CN1CCC(=C2c3ccc(Cl)cc3CCc3cccnc32)CC1 (racemic): 750

* * *

procedureSummary: Toxicity in Sprague-Dawley rat
statedConditions: in vivo
readoutType: LD50 (mg/kg)

- Clc1ccc2c(c1)CCc1cccnc1C2=C1CCNCC1: 250

* * *

procedureSummary: Half life in human liver microsomes incubated for 6 hrs by LC/MS analysis
Type: ADME, Microsome
Entries and their half-life
readoutType: half-life (min)

• COc1ccccc1OCC(O)CN1CCC(=C2c3ccc(Cl)cc3CCc3cccnc32)CC1 (racemic) = 7.74
• Cc1ncc2n1-c1ccc(Cl)cc1C(c1ccccc1F)=NC2 [MIDAZOLAM] = 12

* * *

Test system: Mus musculus
procedureSummary: Anti-inflammatory activity in DNFB-induced mouse ear edema model assessed as inhibition in ear swelling at 5 mg/kg relative to control
Format: functional
Each entry below carries its recorded inhibition in vivo at 5 mg/kg.
readoutType: inhibition in vivo at 5 mg/kg (%)

- Cc1ccccc1OCC(O)CN1CCC(=C2c3ccc(Cl)cc3CCc3cccnc32)CC1 (stereo unspecified): 59.1
- OC(COc1ccccc1F)CN1CCC(=C2c3ccc(Cl)cc3CCc3cccnc32)CC1 (stereo unspecified): 26
- OC(COc1ccccc1)CN1CCC(=C2c3ccc(Cl)cc3CCc3cccnc32)CC1 (stereo unspecified): 59.1
- COc1ccccc1OCC(O)CN1CCC(=C2c3ccc(Cl)cc3CCc3cccnc32)CC1 (racemic): 59.2
- COc1ccccc1OCCCN1CCC(=C2c3ccc(Cl)cc3CCc3cccnc32)CC1: 59.5
- COc1cccc(OCC(O)CN2CCC(=C3c4ccc(Cl)cc4CCc4cccnc43)CC2)c1 (stereo unspecified): 43.1
